# target.of.assay: T1, cCD137-mFc-Avi (cynomolgus, Homodimer through the mouse Fc (one chain given). In the biotinylated version one biotin sits on the Avi-tag lysine of each monomer.)
# T1 construct: dimer; biotinylated version used on streptavidin plates; also called cyno CD137-mFc-Avi; cyno CD137-mFc
# T1 chain: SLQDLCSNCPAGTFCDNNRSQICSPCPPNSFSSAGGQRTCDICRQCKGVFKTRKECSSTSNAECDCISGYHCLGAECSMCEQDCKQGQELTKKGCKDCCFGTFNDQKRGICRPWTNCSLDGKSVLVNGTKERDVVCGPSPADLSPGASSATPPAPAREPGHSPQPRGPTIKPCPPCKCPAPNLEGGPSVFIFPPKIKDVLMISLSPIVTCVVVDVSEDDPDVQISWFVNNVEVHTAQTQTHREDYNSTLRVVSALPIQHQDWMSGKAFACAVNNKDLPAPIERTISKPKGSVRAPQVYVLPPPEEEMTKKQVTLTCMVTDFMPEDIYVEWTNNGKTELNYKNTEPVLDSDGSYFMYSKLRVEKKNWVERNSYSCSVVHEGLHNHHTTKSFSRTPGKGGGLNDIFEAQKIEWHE
# assay.comment: SPR (Biacore 3000), mAb^2 captured by anti-human Fc, dimeric CD137-mFc as analyte, 1:1 model with mass transfer
pKd: −log10 of the molar value.
Label MET for high-side pKd (at or above 9) and NOT MET for low-side pKd (below it).

Look over these answered cases.
INSERT INTO results (binder, assigned_label) VALUES
  ('FS20-22-49AA/FS30-10-16 (bispecific antibody, human IgG1, kappa, L234A L235A, V domains shown, M97 (Kabat) to L against FS30-10; also called FS30-10-16 in mAb^2 format) VH: EVQLLESGGGLVQPGGSLRLSCAASGFTFSSYDMSWVRQAPGKGLEWVSDIDPTGSKTDYADSVKGRFTISRDNSKNTLYLQMNSLRAEDTAVYYCARDLLVYGFDYWGQGTLVTVSS VL: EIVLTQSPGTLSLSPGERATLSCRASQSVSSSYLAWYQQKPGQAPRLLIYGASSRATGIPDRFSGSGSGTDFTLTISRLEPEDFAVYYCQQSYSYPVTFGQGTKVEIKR', 'MET'),
  ('FS20-22-49AA/FS30-10-12 (bispecific antibody, human IgG1, kappa, L234A L235A, V domains shown, M97 (Kabat) to T against FS30-10; also called FS30-10-12 in mAb^2 format) VH: EVQLLESGGGLVQPGGSLRLSCAASGFTFSSYDMSWVRQAPGKGLEWVSDIDPTGSKTDYADSVKGRFTISRDNSKNTLYLQMNSLRAEDTAVYYCARDLTVYGFDYWGQGTLVTVSS VL: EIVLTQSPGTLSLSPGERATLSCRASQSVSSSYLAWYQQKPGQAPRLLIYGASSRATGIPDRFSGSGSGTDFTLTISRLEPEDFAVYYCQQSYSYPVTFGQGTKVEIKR', 'NOT MET'),
  ('FS20-22-49AA/FS30-5-37 (bispecific antibody, human IgG1, kappa, L234A L235A, V domains shown, M100D to I and M100H to L against FS30-5; also called FS30-5-37 in mAb^2 format) VH: EVQLLESGGGLVQPGGSLRLNCAASGFTFSSYAMSWVRQAPGKGLEWVSAISGSGGSTYYADSVKGRFTISRDNSKNTLYLQMNSLRAEDTAVYYCARSYDKYWGSSIYSGLDYWGQGTLVTVSS VL: EIVLTQSPGTLSLSPGERATLSCRASQSVSSSYLAWYQQKPGQAPRLLIYGASSRATGIPDRFSGSGSGTDFTLTISRLEPEDFAVYYCQQYYSYYPVTFGQGTKVEIKR', 'NOT MET');

Could you now consider this next binder?
Given the entry FS20-22-49AA/FS30-10-3 (bispecific antibody, human IgG1, kappa, L234A L235A, V domains shown, M97 (Kabat) to N against FS30-10; also called FS30-10-3 in mAb^2 format) VH: EVQLLESGGGLVQPGGSLRLSCAASGFTFSSYDMSWVRQAPGKGLEWVSDIDPTGSKTDYADSVKGRFTISRDNSKNTLYLQMNSLRAEDTAVYYCARDLNVYGFDYWGQGTLVTVSS VL: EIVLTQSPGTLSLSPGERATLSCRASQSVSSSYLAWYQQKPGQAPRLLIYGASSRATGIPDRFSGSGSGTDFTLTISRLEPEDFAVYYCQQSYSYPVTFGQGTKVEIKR , answer whether its pKd meets or surpasses 9.
MET
